# Tested on: Saccharomyces cerevisiae;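 also: PSI is a weighted mean of sequencing reads over stability bins, variants kept only with over 10 reads, mCherry proximal and sfGFP distal, peptide attached via GGGS linker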
# EXPERIMENT_SUMMARY: protein stability index of tFT-peptide fusion (C-terminal peptide) (PSI (0-1 scale)); higher = more stable (slower turnover)
# SETUP_CONDITIONS: genetic background: doa10 deletion; temperature: 30 C
Answer label 0 if protein stability index is under 0.3, and label 1 if it is 0.3 or more.

SEQUENCE_DATA	DISCRETE_LABEL
ICSRCLVTVLSC	label 0
VLGLYSLLLSFF	label 0
PVILISWQLRCY	label 0
FGVLLLFLFFLP	label 1
CLWLRCIVSILP	label 0
DGGHLVGHDLFY	label 1
FSLLLSLSLFHC	label 0
FRVILISACESV	label 1
HCNRLIFWYKCT	label 0
DCLSFVLFLFLC	label 0
FSFPAFTFIVSI	label 1
CGLYNQFCLFLY	label 0
WCAGCLGWWLQS	label 0
PLLPPLSTPPPA	label 1
IFVLLSYYPLFV	label 0
WLVIWPRKLSTV	label 1
GLFCCFLCLSVF	label 0
ASSFYVDLVLVS	label 0
VMRMVWVLGVMC	label 0
FFRFNCVFWLFL	label 0
FLVLFYCTFWVR	label 0
GVRAGVRRAGVG	label 1
VLVLSFLYRMVK	label 0
ARSGGYLMVVLV	label 1
VGVSVVMVVEVP	label 0
SPCFLDPPRLIS	label 0
RCQILSYCLLFV	label 1
WLGLFAFRRCLV	label 0
FFSQLFLEIVAA	label 0
PLHPSSTPATPF	label 1
VLGARWHWIYIA	label 0
TGYRYVGRFFVV	label 0
RRLAVWCDFRSL	label 1
YDVQIEFCVVEV	label 1
SLSPVFVAVWFL	label 1
PPPPLFLIVLHL	label 1
VIRFNSAPRFLV	label 0
ILHRRCGLLLQI	label 0
PPPLLVRPWFLV	label 0
GIPVRRLLFLVA	label 0
FVVGFVCSMVWG	label 0
